Some molecules, each annotated with its measured inhibition.
# EXPERIMENTAL SYSTEM: N-glycosylase/DNA lyase (Homo sapiens)
# PARTICULARS: Compound Concentration 10.0 uM, Hit No
# Description: Inhibition of OGG1 by quantifying inhibition of OGG1-mediated cleavage and dissociation of quenched duplex DNA oligonucleotides, measured as fluorescence at 594 nm. To generate a functional strand incision and increase turn-over this assay is coupled to APE1.
State the value with its unit after it.

1) C[C@@H](NCCCc1cccc(C(F)(F)F)c1)c1cccc2ccccc12	-4.37%
2) Cc1cc(Cn2nnc3c(-c4ccco4)nc(N)nc32)ccc1N	0.253%

Now look at this one.
Prompt: Returns the measured inhibition for the input molecule. Input: CC1(C)[C@H]2C[C@H](C/C=C\CCCC(=O)O)[C@@H](NC(=O)c3csc4ccc(O)cc34)[C@@H]1C2
Response: 3.96%

###

# EXPERIMENTAL SYSTEM: Single-strand selective monofunctional uracil DNA glycosylase (Homo sapiens) (UniProt Q53HV7);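 further: enzymatic SMUG1 assay coupled with APE1, reading fluorescence at 594 nm released when a quenched double-stranded DNA oligonucleotide substrate is cleaved and separated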
# Sequence (Q53HV7 whole entry): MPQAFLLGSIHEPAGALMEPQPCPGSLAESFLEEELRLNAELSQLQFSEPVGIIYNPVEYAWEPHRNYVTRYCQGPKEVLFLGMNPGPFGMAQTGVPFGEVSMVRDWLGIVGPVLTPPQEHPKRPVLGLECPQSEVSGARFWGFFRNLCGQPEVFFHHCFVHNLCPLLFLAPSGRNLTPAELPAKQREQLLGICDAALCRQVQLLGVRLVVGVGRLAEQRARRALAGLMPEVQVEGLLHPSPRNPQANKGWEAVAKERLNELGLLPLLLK
# PARTICULARS: Compound Concentration 10.0 uM, Hit No
# Description: Inhibition of SMUG1 by quantifying inhibition of SMUG1-mediated cleavage and dissociation of quenched duplex DNA oligonucleotides, measured as fluorescence at 594 nm. To generate a functional strand incision and increase turn-over this assay is coupled to APE1.
EXPERIMENTAL READOUT: inhibition

# count of solved cases: 5
1. CC(Cc1ccc(O)c(O)c1)C(C)Cc1ccc(O)c(O)c1 (stereo not drawn)	-6.33%
2. NCCc1ccc(O)c(O)c1	-4.83%
3. CC(C)C(=O)N1CCC(c2cn(C)c3ncc(NC(=O)c4cccc(C#N)c4)c(C(F)(F)F)c23)CC1	26.5%
4. CC(C)c1ccc(CC(=O)N[C@H](C)c2ccc(OCC(F)(F)F)cn2)cc1	4.45%
5. CNC(=O)Nc1ccc(-c2nc(N3CC4CCC(C3)O4)c3cnn(C4CCC5(CC4)OCCO5)c3n2)cc1	15.7%

Prompt: What value of measured inhibition is listed for CCc1cc(C(C)=O)c(O)cc1OCCCCCC(C)(C)c1nn[nH]n1 ?
Response: 0.79%

Prompt: Fill in: inhibition of CNc1cc(Oc2cc(C(=O)Nc3cc(N4CCN(C)CC4)cc(C(F)(F)F)c3)ccc2C)ncn1 is ___
Response: -8.61%

Prompt: Given CSc1ccc(C(=O)N[C@@H]2CCCC[C@@H]2NC(=O)CNC(=O)c2cc(C(F)(F)F)ccc2NC(=O)NC(C)C)cc1 , state its recorded inhibition.
Response: 0.0151%

Prompt: Returns the measured inhibition for the input compound. Input: FC(F)(F)c1ccc(Nc2ncnc3cc(-c4ncccc4C(F)(F)F)ccc23)cc1
Response: 19.7%

Prompt: I would be grateful if you could share the reported inhibition for CC(C)(O)c1cncc(-c2nc3ccc(F)cc3n2C2CC2)c1 .
Response: 1.08%

Prompt: Could you share which inhibition value was measured for O=C1CSC(=O)N1C(CCc1ccncc1)COc1ccc(-c2cccc([N+](=O)[O-])c2)cc1 (stereo not drawn) ?
Response: 6.99%

Prompt: Which measured inhibition value corresponds to Cc1c(NC(=O)c2cc(C(N)=O)nc3cc(F)ccc23)c(C(F)(F)F)nn1Cc1ccc(C#N)cc1 ?
Response: 19.9%

###

# EXPERIMENTAL SYSTEM: G/T mismatch-specific thymine DNA glycosylase (Homo sapiens) (UniProt Q13569);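 further: human TDG cleavage of quenched duplex DNA oligonucleotides coupled to APE1, strand release read as fluorescence at 594 nm, inhibition of TDG activity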
# Sequence (Q13569 whole entry): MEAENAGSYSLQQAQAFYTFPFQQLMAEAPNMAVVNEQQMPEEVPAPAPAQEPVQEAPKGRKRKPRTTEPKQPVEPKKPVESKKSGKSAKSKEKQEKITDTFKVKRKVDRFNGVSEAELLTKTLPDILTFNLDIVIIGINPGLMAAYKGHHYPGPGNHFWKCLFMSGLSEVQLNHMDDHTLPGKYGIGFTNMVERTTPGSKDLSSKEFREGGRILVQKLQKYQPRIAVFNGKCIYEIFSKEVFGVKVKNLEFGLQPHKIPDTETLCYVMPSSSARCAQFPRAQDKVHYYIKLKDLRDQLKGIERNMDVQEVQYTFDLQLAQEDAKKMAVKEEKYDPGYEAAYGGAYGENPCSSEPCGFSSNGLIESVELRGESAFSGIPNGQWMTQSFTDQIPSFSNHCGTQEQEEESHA
# PARTICULARS: Compound Concentration 10.0 uM, Hit No
# Description: Inhibition of TDG by quantifying inhibition of TDG-mediated cleavage and dissociation of quenched duplex DNA oligonucleotides, measured as fluorescence at 594 nm. To generate a functional strand incision and increase turn-over this assay is coupled to APE1.
Where a SMILES comes first, the peptide text is derived from it. Bridges are numbered along the chain shown (N, C = ends). [ ]: non-standard residue; d: D form. Orn = NCCC[C@H](N)C(=O)O; Mpa = O=C(O)CCS
EXPERIMENTAL READOUT: inhibition (%)
Express it in %; write the number only.

Answered examples (3):
1) CC(=O)Nc1cccc2c1c(Sc1ccc(Cl)cc1)c(C)n2CC(=O)O	16.4
2) O=C1c2ccccc2C(Cc2ccncc2)(Cc2ccncc2)c2ccccc21	21.3
3) Cc1ccc(F)cc1C(=O)Nc1ccc(C(=O)N2Cc3cccn3Cc3ccccc32)c(Cl)c1	-0.756

Prompt: Quick one: inhibition for CCCCc1nc2ccc(NC(=O)NC3CCCCC3)cc2n1Cc1ccc(-c2ccccc2C(=O)O)cc1 ?
Response: 33.1

Prompt: // returns reported inhibition for input CCOc1ccc(C[C@H]2NC(=O)CCSSC[C@@H](C(=O)N3CCC[C@H]3C(=O)N[C@@H](CCCN)C(=O)NCC(N)=O)NC(=O)[C@H](CC(N)=O)NC(=O)[C@H]([C@@H](C)O)NC(=O)[C@H]([C@@H](C)CC)NC2=O)cc1 ([Mpa][dY](Et)ITNCP[Orn]G-NH2; disulfide 1-6)
Response: -5.89

Prompt: Which inhibition value is on record for C/C(=N\NC(=O)[C@@H]1C(=O)NC[C@H]1c1ccccc1)c1cccc(Br)c1 ?
Response: 17.2

Prompt: What measured inhibition goes with O=c1nc(-c2ccccn2)sc2ccccc12 ?
Response: 99.2

Prompt: // query inhibition value for entry C[C@]1(C(=O)N(CCCC(=O)O)Cc2cccc(Cl)c2)CCN1C(=O)c1csc2ccccc12
Response: 25.5

###

# EXPERIMENTAL SYSTEM: Endonuclease 8-like 2 (Homo sapiens)
# PARTICULARS: Compound Concentration 10.0 uM, Hit No
# Description: Inhibition of NEIL2 by quantifying inhibition of NEIL2-mediated cleavage and dissociation of quenched duplex DNA oligonucleotides, measured as fluorescence at 594 nm.
EXPERIMENTAL READOUT: inhibition (%)
Express it in %; write the number only.

1) c1ccc(C2CCN(c3cnc4c(N5CCOCC5)nccn34)CC2)cc1	-2.53

Prompt: Please provide the recorded inhibition for O=C(O)[C@H]1O[C@H](OP(=O)(O)OP(=O)(O)OC[C@H]2O[C@@H](n3ccc(=O)[nH]c3=O)[C@H](O)[C@@H]2O)[C@H](O)[C@@H](O)[C@@H]1O , tested on Endonuclease 8-like 2 (Homo sapiens).
Response: -7.23

Prompt: Form field - read-out: inhibition; system: Endonuclease 8-like 2 (Homo sapiens); submitted item: CCN(CC)CCCCC1CCN(CC(=O)N2c3ccccc3C(=O)Nc3cccnc32)CC1
Response: 12.7

Prompt: For the record CCOc1ccc(Cc2nc3cc(C(=O)N(CC)CC)ccc3n2CC2CCCCC2)cc1 , what value of inhibition is listed for Endonuclease 8-like 2 (Homo sapiens)?
Response: 4.01

Prompt: API: value(readout= inhibition, system= Endonuclease 8-like 2 (Homo sapiens), query= Cc1cc(Cn2cnc3c2C[C@@H](C(=O)O)N(C(=O)C(c2ccccc2)c2ccccc2)C3)ccc1N(C)C );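 further: fluorescence at 594 nm reports NEIL2 cutting and release of a quenched double-stranded DNA oligo substrate, reduced signal read as inhibition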
Response: -0.733

###

# EXPERIMENTAL SYSTEM: Endonuclease III-like protein 1 (Homo sapiens)
# PARTICULARS: Compound Concentration 10.0 uM, Hit No
# Description: Inhibition of NTHL1 by quantifying inhibition of NTHL1-mediated cleavage and dissociation of quenched duplex DNA oligonucleotides, measured as fluorescence at 594 nm.
EXPERIMENTAL READOUT: inhibition (%)
Write down the numeric answer in % and omit the unit.

1. NCCc1c[nH]cn1	15.1
2. COc1cc(Nc2ccc([N+](=O)[O-])cc2C(=O)O)cc2ccccc12	11.3
3. Fc1ccc(-c2c3cccc(C(F)(F)F)c3nn2Cc2ccc(F)cc2Cl)cc1	-1.29
4. O=C(COc1cccc2ccccc12)Nc1cc(Cl)ccc1C(=O)O	12.9
5. CCOC(=O)N1CCC(c2cc(O)n3nc(C)c(-c4ccc(F)cc4)c3n2)CC1	11.3

Prompt: Record lookup: for Endonuclease III-like protein 1 (Homo sapiens), what inhibition belongs to COc1cc(Nc2ccnc3ccc(Br)cc23)cc(OC)c1OC ?
Response: 0.785

###

# EXPERIMENTAL SYSTEM: N-glycosylase/DNA lyase (Homo sapiens);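 further: OGG1 cleavage of a quenched duplex DNA oligonucleotide, coupled to APE1 for strand incision, read as fluorescence at 594 nm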
# PARTICULARS: Compound Concentration 10.0 uM, Hit No
// reported inhibition per item
Give the quantity in %, number only.

Prompt: May I ask what inhibition has been recorded for CNC(=O)c1cc(C(=O)NC2CC2)cn(Cc2ccccc2)c1=O ?
Response: 10.8

Prompt: Consider the compound COCCc1ccc(-c2c(C)nc3c(N4CCOCC4)ccnn23)cn1 and give its measured inhibition.
Response: 9.87

Prompt: Endpoint output: inhibition of O=c1ccc2c(OCCCCOc3ccccc3)c3ccoc3cc2o1 . Value?
Response: 3.75

Prompt: Fill in the blank: the reported inhibition of CCO[C@@H](Cc1ccc(OCCc2ccc(OS(C)(=O)=O)cc2)cc1)C(=O)O is ____.
Response: 7.36

Prompt: Entry O=C(O)CC/C=C\C[C@@H]1CO[C@H](c2ccccc2Cl)O[C@@H]1c1ccccc1O has what inhibition?
Response: -7.71

Prompt: Which inhibition is reported for this compound? CCOC(=O)c1ccc(N2C(=O)C(O)=C(C(=O)c3ccc(OC)cc3)C2c2ccc(F)cc2)cc1 (centres undefined)
Response: -5.97

Prompt: Entry under review: CCn1cnc2c(-c3ccc(F)c(-c4ccc(S(=O)(=O)CC)cc4OC)c3)cnnc21 . Reported inhibition?
Response: -5.04

Prompt: Name the reported inhibition value associated with the compound C[C@@]1(Cc2ccc(C#N)cc2)C(=O)N(c2cc(Cl)cc(Cl)c2)c2ncc(C(=O)NC3(c4nc(C5CCC5)no4)CC3)n21
Response: 13.1

Prompt: // returns reported inhibition for input O=C(Nc1c(-c2cccs2)nc2ccc(Cl)cn12)c1ccc(Cl)cc1
Response: -9.75

Prompt: Return reported inhibition; argument: CCc1cc2c(cc1CC)CC(NC[C@H](O)c1ccc(O)c3[nH]c(=O)ccc13)C2
Response: 4.23

Prompt: Returns the measured inhibition for the input compound. Input: O[C@H]1CC[C@H](Nc2ncc3nc(Nc4c(F)cc(F)cc4F)n([C@H]4CCOC4)c3n2)CC1
Response: 6.26

Prompt: I am curious: what inhibition value has been reported for CNC(=O)COc1cc2cc(Nc3nc(N4CCC(C(=O)N(C)C)CC4)ncc3Cl)cc(OC)c2n(C)c1=O ?
Response: 4.56

Prompt: Please report the recorded inhibition for COc1ccccc1CN[C@H]1C2CCN(CC2)[C@H]1C(c1ccccc1)c1ccccc1 .
Response: -6.59

Prompt: Record request: inhibition value, item Cc1ccc(-c2ccc(F)cc2COc2ccc(CCC(=O)O)cc2)cc1
Response: 31.9
